Origin of measurements: patent US20230168249A1

TEST_TARGET: T1, SARS-CoV-2-N protein (SARS-CoV-2, UniProt P0DTC9 1-419)
T1 construct: also called nucleocapsid protein of SARS-CoV-2
ASSAY: ELISA, IgG1 on recombinant N protein
Listing: EC50 of selected binders

BINDER: antibody #22 (antibody, V domains shown, also called D22) VH: EVQLVESGGGLVQPGGSLRLSCAASGFTISSGSIHWVRQAPGKGLEWVASIWPFGGYTSYADSVKGRFTISADTSKNTAYLQMNSLRAEDTAVYYCARGSFGSDYWGQGTLVTVSS VL: DIQMTQSPSSLSASVGDRVTITCRASQDVDDNVAWYQQKPGKAPKLLISSSSGLYSGVPSRFSGSGSGTDFTLTISSLQPEDFATYYCQQSYNGPITFGQGTKVEIKR
UNIT_STRING: ng/mL
EC50: 4.4
--
BINDER: antibody #36 (antibody, V domains shown, also called IgG1#36; D36) VH: EVQLVESGGGLVQPGGSLRLSCAASGFTINRYSIHWVRQAPGKGLEWVAGIWPFGGDTTYADSVKGRFTISADTSKNTAYLQMNSLRAEDTAVYYCARGATSHDYWGQGTLVTVSS VL: DIQMTQSPSSLSASVGDRVTITCRASQDVTTTVAWYQQKPGKAPKLLINKGSWLYSGVPSRFSGSGSGTDFTLTISSLQPEDFATYYCQQYNKWPLTFGQGTKVEIKR
UNIT_STRING: ng/mL
EC50: 0.8
--
BINDER: antibody #33 (antibody, V domains shown, also called D33; C33) VH: EVQLVESGGGLVQPGGSLRLSCAASGFTINNGGIHWVRQAPGKGLEWVAGIWPFWGSTSYADSVKGRFTISADTSKNTAYLQMNSLRAEDTAVYYCARGSYGFDYWGQGTLVTVSS VL: DIQMTQSPSSLSASVGDRVTITCRASQDVYSSVAWYQQKPGKAPKLLIFGSSFLYSGVPSRFSGSGSGTDFTLTISSLQPEDFATYYCQQYYDWPITFGQGTKVEIKR
UNIT_STRING: ng/mL
EC50: 1.4
